Reported log10 of IC50 values for a set of compounds
test system: MCF7; assay: Antitumor activity against MCF7 cells; format: functional, cell-based; settings: Homo sapiens
For clarity, the numbers are log10 values of IC50 expressed in nM.

Example entries begin here.
CCOC(=O)c1ccc2[nH]cc(Cc3c[nH]c4ccc(C(=O)OCC)cc34)c2c1 3.24
c1ccc2c(Cc3c[nH]c4ccccc34)c[nH]c2c1 3.74
CCOC(=O)c1ccc2[nH]c3c(C(F)(F)C(F)(F)C(F)(F)F)c4[nH]c5ccc(C(=O)OCC)cc5c4cc3c2c1 1.95
c1ccc2[nH]c(Cc3cc4ccccc4[nH]3)cc2c1 2.97
CCOC(=O)c1ccc2[nH]c3c(OC)c4[nH]c5ccc(C(=O)OCC)cc5c4cc3c2c1 2.28
CCOC(=O)Oc1c2[nH]c3ccccc3c2cc2c1[nH]c1ccccc12 1.90
C=C(c1c[nH]c2ccccc12)c1c[nH]c2ccccc12 3.52

Consider the additional compound presented here.
Report log10 of IC50 on MCF7 for this entry: CCOC(=O)Oc1c2[nH]c3ccc(C(=O)OCC)cc3c2cc2c1[nH]c1ccc(C(=O)OCC)cc12
2.04
